Sourced from patent US6265433A

biological target: Recombinant Human LTA4 Hydrolase (Homo sapiens, UniProt P09960); assay: Recombinant Human LTA Hydrolase Assay (in vitro LTA hydrolase enzyme assay); conditions: 250 ng rhLTA4 hydrolase; 10 minutes preincubation and 10 minutes reaction at room temperature; pH 7.4
Sequence (P09960 whole entry): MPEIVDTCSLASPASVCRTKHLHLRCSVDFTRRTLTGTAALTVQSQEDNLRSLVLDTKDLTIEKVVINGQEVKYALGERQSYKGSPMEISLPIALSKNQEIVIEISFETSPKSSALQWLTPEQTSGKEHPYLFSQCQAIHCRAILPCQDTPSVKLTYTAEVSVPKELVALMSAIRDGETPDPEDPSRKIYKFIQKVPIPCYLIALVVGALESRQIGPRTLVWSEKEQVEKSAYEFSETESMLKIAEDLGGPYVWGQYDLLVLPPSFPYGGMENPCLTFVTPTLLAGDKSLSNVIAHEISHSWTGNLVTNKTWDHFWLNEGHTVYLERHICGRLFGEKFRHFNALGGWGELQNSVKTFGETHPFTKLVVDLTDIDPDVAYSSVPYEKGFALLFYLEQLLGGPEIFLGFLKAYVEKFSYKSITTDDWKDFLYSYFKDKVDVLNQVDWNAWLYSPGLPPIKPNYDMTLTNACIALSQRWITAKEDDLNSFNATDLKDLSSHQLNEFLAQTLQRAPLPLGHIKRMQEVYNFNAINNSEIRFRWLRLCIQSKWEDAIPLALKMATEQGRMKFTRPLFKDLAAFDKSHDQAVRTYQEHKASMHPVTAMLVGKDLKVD
# Lookup of reported pIC50 keyed by entry
API: returns pIC50 as number; meaning -log10 of concentration in mol/L.

pIC50 on Recombinant Human LTA4 Hydrolase (Homo sapiens, UniProt P09960) for CCN(CCCOc1ccc(Oc2ccc(-c3ncco3)cc2)cc1)CCC(=O)O is 6.47

pIC50 on Recombinant Human LTA4 Hydrolase (Homo sapiens, UniProt P09960) for c1cc(Oc2ccc(C3=NCCO3)cc2)ccc1OCCN1CCCC1 is 6.23

pIC50 on Recombinant Human LTA4 Hydrolase (Homo sapiens, UniProt P09960) for CN(CCCOc1ccc(Oc2ccc(-c3ncco3)cc2)cc1)CCC(=O)O is 7.57

pIC50 on Recombinant Human LTA4 Hydrolase (Homo sapiens, UniProt P09960) for CCOC(=O)C1CCN(CCOc2ccc(Oc3ccc(-c4ccccc4)cc3)cc2)CC1 is 6.47

pIC50 on Recombinant Human LTA4 Hydrolase (Homo sapiens, UniProt P09960) for CN(CCCOc1ccc(Oc2ccc(-c3nccs3)cc2)cc1)CCC(=O)O is 6.02

New cases:
pIC50 on Recombinant Human LTA4 Hydrolase (Homo sapiens, UniProt P09960) for c1ccc(-c2ccc(Oc3ccc(OCCN4CCCC4)cc3)cc2)cc1 is 8.18

pIC50 on Recombinant Human LTA4 Hydrolase (Homo sapiens, UniProt P09960) for COC(=O)CCN(C)CCCOc1ccc(Oc2ccc(-c3ccccc3)cc2)cc1 is 6.26
